The reported measurements were obtained from patent US11034650B2.

System: Pasteurella multocida PM 10775 (080130003051, BRD field isolate)
Test: MIC, broth-microdilution (CLSI VET01-A4), strain PM 10775
Type: cell-based
Conditions: Pasteurella multocida strain PM 10775, broth-microdilution; unit assumed
outcome.measure: MIC PM 10775

{"columns": ["molecule", "assay.result"],
 "data": [
  ["CC(C)[C@H](NC(=O)c1ccc(C#Cc2ccc(CNCc3ccnc(Cl)c3)cc2)cc1)C(=O)NO", "≤ 0.1 µg/mL"]
]}

Let us examine a further case.
Request: Note down MIC PM 10775 recorded for `CC[C@H](C)[C@H](NC(=O)c1ccc(C#Cc2ccc(CNCc3ccc(N(C)C)cc3)cc2)cc1)C(=O)NO`
Response: 0.4 µg/mL

----------
System: Pasteurella multocida PM 10775 (080130003051, BRD field isolate)
Assay: MIC, broth-microdilution (CLSI VET01-A4), strain PM 10775
Type: cell-based
Conditions: Pasteurella multocida strain PM 10775, broth-microdilution; unit assumed
We begin with a simple list: items and their reported MIC PM 10775.

Example results:
{"columns": ["molecule", "MIC PM 10775"],
 "data": [
  ["CSC(C)(C)[C@H](NC(=O)c1ccc(C#Cc2ccc(CNCc3ncccn3)nc2)cc1)C(=O)NO [Compound 346]", "0.4 µg/mL"],
  ["CC(=O)C(NC(=O)c1ccc(C#Cc2ccc(CNC3CCC3)cc2)cc1)C(=O)NO (stereo not drawn) [Compound 404]", "3.1 µg/mL"],
  ["CC(=O)C(NC(=O)c1ccc(C#Cc2ccc(CNCc3ccco3)cc2)cc1)C(=O)NO (stereo not drawn) [Compound 410]", "0.8 µg/mL"]
]}

Request: Note down MIC PM 10775 recorded for Cc1ccc(CNCc2ccc(C#Cc3ccc(C(=O)N[C@@H](CO)C(=O)NO)cc3)cc2)cc1 [Compound 161]
Response: ≤ 0.1 µg/mL

Request: Note down MIC PM 10775 recorded for CSC(C)(C)[C@H](NC(=O)c1ccc(C#Cc2ccc(CNCc3cccs3)cc2)cc1)C(=O)NO [Compound 251]
Response: ≤ 0.1 µg/mL

----------
We begin with a simple list: items and their reported MIC PM 10775.
Test system: Pasteurella multocida PM 10775 (080130003051, BRD field isolate)
Assay: MIC, broth-microdilution (CLSI VET01-A4), strain PM 10775
Type: cell-based
Settings: Pasteurella multocida strain PM 10775, broth-microdilution; unit assumed

Example results:
{"columns": ["molecule", "MIC PM 10775"],
 "data": [
  ["CSC(C)(C)[C@H](NC(=O)c1ccc(C#Cc2ccc(CNC3CC3)s2)cc1)C(=O)NO", "≤ 0.1 µg/mL"],
  ["O=C(N[C@@H](CO)C(=O)NO)c1ccc(C#Cc2ccc(CNCc3ccccc3)cc2)cc1", "≤ 0.1 µg/mL"],
  ["CSC(C)(C)[C@H](NC(=O)c1ccc(C#Cc2ccc(CNCc3ccco3)cc2)cc1)C(=O)NO", "≤ 0.1 µg/mL"],
  ["CCCNCc1ccc(C#Cc2ccc(C(=O)N[C@@H](C(C)=O)C(=O)NO)cc2)cc1", "3.1 µg/mL"],
  ["CC(C)(C(NC(=O)c1ccc(C#Cc2ccc(CNCc3ccc(F)cc3)cc2)cc1)C(=O)NO)[N+](=O)[O-] (stereo not drawn)", "≤ 0.1 µg/mL"],
  ["CC(C)(O)[C@H](NC(=O)c1ccc(C#Cc2ccc(CNCc3ccncc3)nc2)cc1)C(=O)NO", "≤ 0.1 µg/mL"],
  ["CC(C)([C@H](NC(=O)c1ccc(C#Cc2ccc(CNCc3ncccn3)s2)cc1)C(=O)NO)S(C)(=O)=O", "≤ 0.1 µg/mL"],
  ["O=C(N[C@@H](CO)C(=O)NO)c1ccc(C#Cc2ccc(CNC3CCC3)cc2)cc1", "≤ 0.1 µg/mL"],
  ["CC[C@H](C)[C@H](NC(=O)c1ccc(C#Cc2ccc(CNCCCOC)cc2)cc1)C(=O)NO", "≤ 0.1 µg/mL"],
  ["CC[C@H](C)[C@H](NC(=O)c1ccc(C#Cc2ccc(CNC3CCC3)cc2)cc1)C(=O)NO", "≤ 0.1 µg/mL"]
]}

Request: Note down MIC PM 10775 recorded for CC(=O)C(NC(=O)c1ccc(C#Cc2ccc(CNCc3cccnc3)cc2)cc1)C(=O)NO (stereo not drawn)
Response: 1.6 µg/mL

Request: Note down MIC PM 10775 recorded for CC[C@H](C)[C@H](NC(=O)c1ccc(C#Cc2ccc(CN3CC(C)OC(C)C3)cc2)cc1)C(=O)NO (stereo partly drawn)
Response: ≤ 0.1 µg/mL

Request: Note down MIC PM 10775 recorded for CC(=O)C(NC(=O)c1ccc(C#Cc2ccc(CNCc3cccs3)cc2)cc1)C(=O)NO (stereo not drawn)
Response: 0.4 µg/mL

Request: Note down MIC PM 10775 recorded for `CC(C)([C@H](NC(=O)c1ccc(C#Cc2ccc(CNCC#N)cc2)cc1)C(=O)NO)S(C)(=O)=O`
Response: ≤ 0.1 µg/mL

Request: Note down MIC PM 10775 recorded for `CCNCc1ccc(C#Cc2ccc(C(=O)N[C@H](C(=O)NO)C(C)C)cc2)cc1`
Response: ≤ 0.1 µg/mL

----------
Test system: Pasteurella multocida PM 10775 (080130003051, BRD field isolate)
Assay: MIC, broth-microdilution (CLSI VET01-A4), strain PM 10775
Assay type: cell-based
Conditions: Pasteurella multocida strain PM 10775, broth-microdilution; unit assumed
Procedure: For example, representative compounds were tested against ***, Mannheimia haemolytica and Pasteurella multocida, using the conventional broth-dilution assay. The Minimum inhibitory concentrations (MIC) of compounds according to the invention for a number of veterinary bacterial pathogens were determined by the broth-microdilution method according to CLSI document VET01-A4. Microdilution trays containing a doubling dilution series of the test compound were used for the tests. […]
outcome.measure: MIC PM 10775 (µg/mL)
Report as a plain number; the unit µg/mL is understood.

Example results:
{"columns": ["input.smiles", "target.desc", "assay.result"],
 "data": [
  ["CC(C)[C@H](NC(=O)c1ccc(C#Cc2cccc(CNCc3ccccc3)c2)cc1)C(=O)NO", "Pasteurella multocida PM 10775 (080130003051, BRD field isolate)", 0.8],
  ["CC[C@H](C)[C@H](NC(=O)c1ccc(C#Cc2ccc(CN(CC)CC)cc2)cc1)C(=O)NO", "Pasteurella multocida PM 10775 (080130003051, BRD field isolate)", 0.2]
]}

Let us examine a further case.
Request: Note down MIC PM 10775 recorded for `CC[C@H](C)[C@H](NC(=O)c1ccc(C#Cc2ccc(CN3CCc4ccccc4C3)cc2)cc1)C(=O)NO`
Response: 0.8

----------
We begin with a simple list: items and their reported MIC PM 10775.
Test system: Pasteurella multocida PM 10775 (080130003051, BRD field isolate)
Test: MIC, broth-microdilution (CLSI VET01-A4), strain PM 10775
Assay type: cell-based
Conditions: Pasteurella multocida strain PM 10775, broth-microdilution; unit assumed

Example results:
{"columns": ["compound", "MIC PM 10775"],
 "data": [
  ["CSC(C)(C)[C@H](NC(=O)c1ccc(C#Cc2ccc(CNCc3ncc(C)o3)nc2)cc1)C(=O)NO [Compound 347]", "≤ 0.1 µg/mL"],
  ["COc1ccc(CNCc2ccc(C#Cc3ccc(C(=O)N[C@H](C(=O)NO)C(C)(C)SC)cc3)cc2)cc1 [Compound 240]", "0.2 µg/mL"]
]}

Request: Note down MIC PM 10775 recorded for CC(C)[C@H](NC(=O)c1ccc(C#Cc2ccc(CNCc3ccccn3)cc2)cc1)C(=O)NO [Compound 169]
Response: ≤ 0.1 µg/mL

Request: Note down MIC PM 10775 recorded for CCCNCc1ccc(C#Cc2ccc(C(=O)N[C@H](C(=O)NO)[C@@H](C)CC)cc2)cc1 [Compound 193]
Response: ≤ 0.1 µg/mL

Request: Note down MIC PM 10775 recorded for C=CCNCc1ccc(C#Cc2ccc(C(=O)N[C@H](C(=O)NO)C(C)(C)SC)cc2)cc1 [C.236]
Response: ≤ 0.1 µg/mL

Request: Note down MIC PM 10775 recorded for COCCNCc1ccc(C#Cc2ccc(C(=O)N[C@H](C(=O)NO)C(C)(C)O)cc2)cc1 [Compound 221]
Response: ≤ 0.1 µg/mL

----------
Test system: Pasteurella multocida PM 10775 (080130003051, BRD field isolate)
Test: MIC, broth-microdilution (CLSI VET01-A4), strain PM 10775
Type: cell-based
Conditions: Pasteurella multocida strain PM 10775, broth-microdilution; unit assumed
outcome.measure: MIC PM 10775

Example results:
{"columns": ["molecule", "MIC PM 10775"],
 "data": [
  ["COc1cc2c(cc1OC)CN(Cc1ccc(C#Cc3ccc(C(=O)N[C@@H](CO)C(=O)NO)cc3)cc1)CC2 [Compound 84]", "≤ 0.1 µg/mL"],
  ["C=CCNCc1ccc(C#Cc2ccc(C(=O)N[C@H](C(=O)NO)[C@@H](C)CC)cc2)cc1 [Compound 113]", "≤ 0.1 µg/mL"],
  ["CN1CCN(Cc2ccc(C#Cc3ccc(C(=O)N[C@@H](CO)C(=O)NO)cc3)cc2)CC1 [Compound 146]", "≤ 0.1 µg/mL"],
  ["CSC(C)(C)[C@H](NC(=O)c1ccc(C#Cc2ccc(CNC3CC3)cc2)cc1)C(=O)NO [Compound 235]", "≤ 0.1 µg/mL"],
  ["CON=C(C)[C@H](NC(=O)c1ccc(C#Cc2ccc(CNC3CCC3)cc2)cc1)C(=O)NO [Compound 385]", "0.8 µg/mL"],
  ["CNCc1ccc(C#Cc2ccc(C(=O)N[C@H](C(=O)NO)C(C)C)cc2)cc1 [Compound 207]", "≤ 0.1 µg/mL"],
  ["CC(C)(O)[C@H](NC(=O)c1ccc(C#Cc2ccc(CNCc3ccccn3)s2)cc1)C(=O)NO [Compound 297]", "≤ 0.1 µg/mL"],
  ["COCCNCc1ccc(C#Cc2ccc(C(=O)N[C@H](C(=O)NO)C(C)C)cc2)cc1 [Compound 96]", "≤ 0.1 µg/mL"]
]}

Request: Note down MIC PM 10775 recorded for CC(C)(C(NC(=O)c1ccc(C#Cc2ccc(CNCc3cccs3)cc2)cc1)C(=O)NO)[N+](=O)[O-] (stereo not shown) [Compound 289]
Response: 0.4 µg/mL

Request: Note down MIC PM 10775 recorded for O=C(N[C@@H](CO)C(=O)NO)c1ccc(C#Cc2ccc(CNCc3cccnc3)cc2)cc1 [Compound 157]
Response: ≤ 0.1 µg/mL

Request: Note down MIC PM 10775 recorded for CC[C@H](C)[C@H](NC(=O)c1ccc(C#Cc2ccc(CNCC3CCCO3)cc2)cc1)C(=O)NO (stereo partly shown) [Compound 183]
Response: ≤ 0.1 µg/mL
